This section presents binders with their documented pKd values.
system-name: carbonic anhydrase II (Sigma)
Sequence (chain, as listed by the source): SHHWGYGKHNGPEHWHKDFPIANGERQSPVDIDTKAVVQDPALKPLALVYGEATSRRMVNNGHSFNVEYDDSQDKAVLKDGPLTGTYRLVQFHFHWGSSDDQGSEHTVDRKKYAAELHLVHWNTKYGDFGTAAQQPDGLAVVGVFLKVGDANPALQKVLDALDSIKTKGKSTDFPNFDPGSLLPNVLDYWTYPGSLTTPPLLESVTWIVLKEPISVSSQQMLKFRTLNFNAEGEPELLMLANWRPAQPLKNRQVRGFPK
procedure-details: FP, 50 nM fluorescein-labelled peptide titrated with carbonic anhydrase II, 25 C
Square brackets hold non-standard residues; d marks the D form. Ends that are not written are not given here. pS = N[C@@H](COP(=O)(O)O)C(=O)O
Scale: negative log10 of molar concentration, which is what pKd denotes.

GISWPTFEGDDAPVRRLSFFYILLDLYLDAPGVC(acetamidofluorescein)-NH2 (designed binder, also called PPKID6 (unphosphorylated)) [PPKID6^U]	4.10

Q: Looking for the measured pKd of GPSQPTYPGDDAPVRRL[pS]FFYILLDLYLDAPGVC(acetamidofluorescein)-NH2 (designed binder, also called PPKID4 (phosphorylated)) [PPKID4^P] , can you help?
Result: 3.97
